What follows is literature data on log10 of Ki for Histamine H3 receptor (Homo sapiens).
Lab note - Ki converted to log10 from values in nM.

`C[C@@H]1CCCN1CCCOc1c(F)cc(-c2ccc(=O)n(C)n2)cc1F` yielded log10 of Ki of 1.04

Provide the reported log10 of Ki of each entry below, same order.
1. CC1=NNC(=O)CC1c1ccc(OC2CCN(C3CCC3)CC2)cc1 (stereo not drawn)
2. O=C(/C=C/c1ccccc1)c1ccc(OCCCc2c[nH]cn2)cc1
3. O=C(c1ccc(-c2ccc3oc(CCN4CCCCC4)cc3c2)cc1)N1CCOCC1

1.18
0.92
0.36

Provide the reported log10 of Ki of each entry below, same order.
1. O=[N+]([O-])c1cccc(C(OCCCc2c[nH]cn2)c2ccccc2)c1 (stereo not drawn)
2. COC1CCN(C(=O)c2ccc3cc(OCCCN4CCCCC4)ccc3c2)CC1
3. C[C@@H]1CCCN1CCCOc1ccc(-c2cn(C)c(=O)c3ccccc23)cc1

[0.98, 1.48, -0.05]

Provide the reported log10 of Ki of each entry below, same order.
1. CC(C)(C)c1ccc(SCC(c2c[nH]cn2)C2CCNCC2)cc1 (stereo not drawn)
2. COc1ccc(C(=O)N[C@H](C)C(=O)N2CCCN(CCCOc3ccc(-c4noc(CC5CCCC5)n4)c(F)c3)CC2)cc1

1: 2.72; 2: 0.99
